System: C. elegans
Experiment description: microbe, parasite or virus in culture
Assay setup: Caenorhabditis elegans, 0 h, read-out: Percentage of motility inhibition 0 h, Table S2, C. elegans SS assay, 110 μM, 0 h, averages of 4 data points
Threshold rule: inhibition at 110 µM greater than or equal to 10% is label 1; below that, label 0.

Worked examples follow.
# Smiles input, Classification
records = [
    ("CC(C)=CCc1cc2c(cc1O)O[C@H](c1ccc(O)cc1)CC2=O", "label 1"),
    ("Cc1noc(NS(=O)(=O)c2ccc(N)cc2)c1C", "label 0"),
    ("CCCCCCCCCC(=O)N[C@@H](Cc1c[nH]c2ccccc12)C(=O)N[C@H](CC(N)=O)C(=O)N[C@@H](CC(=O)O)C(=O)N[C@@H]1C(=O)NCC(=O)N[C@@H](CCCN)C(=O)N[C@@H](CC(=O)O)C(=O)N[C@H](C)C(=O)N[C@@H](CC(=O)O)C(=O)NCC(=O)N[C@H](CO)C(=O)N[C@@H]([C@H](C)CC(=O)O)C(=O)N[C@@H](CC(=O)c2ccccc2N)C(=O)O[C@@H]1C", "label 0"),
    ("C=C(C)[C@@H]1CC=C2C(=CC[C@]3(C)[C@@H]([C@@H](CCC=C(C)C)C(=O)O)[C@H](O)C[C@@]23C)[C@@]1(C)CCC(=O)O", "label 1"),
    ("C[C@H](O)C(=O)O", "label 1"),
]

Then this compound:
Query :: State whether the measured inhibition at 110 µM reaches 10%, counting equality as reaching it, for COP(=S)(OC)Oc1c(Cl)cc(C)cc1Cl
Result :: label 1
